Target: UniProt:P47871
Sequence (P47871 whole entry): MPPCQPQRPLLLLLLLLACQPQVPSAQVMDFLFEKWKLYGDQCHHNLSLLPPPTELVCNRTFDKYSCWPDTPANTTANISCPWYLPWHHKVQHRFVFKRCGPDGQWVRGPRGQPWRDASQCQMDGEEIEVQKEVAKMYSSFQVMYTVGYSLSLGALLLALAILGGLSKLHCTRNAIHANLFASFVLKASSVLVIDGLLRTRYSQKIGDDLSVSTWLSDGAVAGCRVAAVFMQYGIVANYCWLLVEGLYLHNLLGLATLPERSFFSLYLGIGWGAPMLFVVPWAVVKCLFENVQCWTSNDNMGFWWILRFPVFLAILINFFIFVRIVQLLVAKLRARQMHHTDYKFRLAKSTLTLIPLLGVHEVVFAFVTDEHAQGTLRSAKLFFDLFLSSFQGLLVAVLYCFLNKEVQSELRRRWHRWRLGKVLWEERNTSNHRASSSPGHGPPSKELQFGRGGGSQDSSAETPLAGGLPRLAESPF
Assay: Antagonist activity at full length human recombinant GCGR transfected in HEK293 cells assessed as inhibition of glucagon-stimulated cAMP by LANCE assay
pKi: −log10 of the molar value.
valueType: pKi

| compound | valueOperator | testResult |
| --- | --- | --- |
| CC(C)CC(c1ccc(C(=O)NCCC(=O)O)cc1)n1ccc2cc(-c3ccc(C(F)(F)F)cc3)ccc21 (racemic) | = | 6.94 |
| Cc1cc(-c2ccc(C(C)(C)C)cc2)cc2ccn(C(CC(C)C)c3ccc(C(=O)NCCC(=O)O)nc3)c12 (racemic) | < | 5.59 |
| Cc1cc(C(F)(F)F)ccc1-c1cc(F)c2c(ccn2C(CC(C)C)c2ccc(C(=O)NCCC(=O)O)cc2)c1C (racemic) | = | 6.15 |
| Cc1cc(-c2ccc(C(C)(C)C)cc2)cc2cn(C(CC(C)C)c3ccc(C(=O)NCCC(=O)O)cc3)nc12 (racemic) | = | 5.87 |
| CC(C)CC(c1ccc(C(=O)NCCC(=O)O)cc1)n1ncc2cc(-c3ccc(N4CCOCC4)cc3)ccc21 (racemic) | = | 5.52 |
| CC(C)CC(c1ccc(C(=O)NCCC(=O)O)cc1)n1ncc2cc(-c3ccc(C(F)(F)F)cc3)ccc21 (racemic) | = | 6.59 |
| Cc1cc(C(F)(F)F)ccc1-c1ccc2nn(C(CC(C)C)c3ccc(C(=O)NCCC(=O)O)cc3)cc2c1Cl (racemic) | = | 7.72 |

These measurements were taken from ChEMBL document CHEMBL4387743.
